- system tested: HLA-B*51:01
- assay overview: IEDB peptide-MHC binding, purified MHC/competitive/radioactivity; filed as Kd, often an IC50 or EC50 that approximates it; bounds were set here for any values at or beyond the usual limits of such assays
- reported conditions: source organism: Vaccinia virus WR
measurement name: Kd

// known answers, use as guide
sequence record | system tested | Kd
TPEQKAYVPA | HLA-B*51:01 | ≥ 55.2 µM
KPKFCLIDGM | HLA-B*51:01 | ≥ 69.6 µM
TLNHVLALK | HLA-B*51:01 | ≥ 77.5 µM
NPTSETMYL | HLA-B*51:01 | ≥ 60.7 µM

For the next question, use this sequence.
Kindly note the recorded Kd for HPLSINVSGV , which is ≥ 29.6 µM

----------
- system tested: HLA-A*24:02
- assay overview: IEDB peptide-MHC binding, purified MHC/competitive/radioactivity; filed as Kd, often an IC50 or EC50 that approximates it; bounds were set here for any values at or beyond the usual limits of such assays
- reported conditions: source organism: SARS coronavirus Tor2
pKd: −log10 of the molar value.
Measured pKd values are reported for all entries that follow.

// known answers, use as guide
sequence record | pKd
WFSQRGGSY | ≤ 4.20
IDETCEHEY | ≤ 4.11
ASLGPLRETY | ≤ 4.15
SSPDAVTTY | ≤ 4.11
VSSPDAVTTY | ≤ 4.15

Kindly note the recorded pKd for NVSLVKPTVY , which is ≤ 4.15

Kindly note the recorded pKd for SGALDTTSY , which is ≤ 4.11

Kindly note the recorded pKd for DYDCVSFCY , which is ≤ 4.69

----------
- system tested: HLA-A*31:01
- assay overview: IEDB peptide-MHC binding, purified MHC/competitive/radioactivity; filed as Kd, often an IC50 or EC50 that approximates it; bounds were set here for any values at or beyond the usual limits of such assays
- reported conditions: source organism: Vaccinia virus WR
measurement name: Kd

sequence record | Kd
QIFNEDTSYY | ≥ 35.7 µM
NSEYIESKAK | ≥ 34.2 µM

Kindly note the recorded Kd for LPRPDTRHL , which is ≥ 77.9 µM

----------
Measured Kd values are reported for all entries that follow.
- system tested: HLA-A*33:01
- assay overview: IEDB peptide-MHC binding, purified MHC/competitive/radioactivity; filed as Kd, often an IC50 or EC50 that approximates it; bounds were set here for any values at or beyond the usual limits of such assays
- reported conditions: source organism: Vaccinia virus WR
Field: numeric (µM). Do not append units.

// known answers, use as guide
sequence record | measurement name | measure unit | numeric value
LACTDPSER | Kd | µM | 2.31
IINFTISMR | Kd | µM | 0.0981
KSTQSVLCVK | Kd | µM | 11.4
LLSIVVDINK | Kd | µM | 10.5
SFSNTIQSYK | Kd | µM | 12.2

Kindly note the recorded Kd for VTAASPMLY , which is 14.5

Kindly note the recorded Kd for ILRNYLRLY , which is 3.02

----------
- system tested: HLA-A*31:01
- assay overview: IEDB peptide-MHC binding, purified MHC/competitive/radioactivity; filed as Kd, often an IC50 or EC50 that approximates it; bounds were set here for any values at or beyond the usual limits of such assays
- reported conditions: source organism: Vaccinia virus WR
Mark each entry MET if its Kd sits below 100 nM, and NOT MET for all others.

# count of solved cases: 5
sequence record | system tested | label class
RVMANNVKK | HLA-A*31:01 | NOT MET
RMLFTSTNDK | HLA-A*31:01 | NOT MET
SIRPRVTKQY | HLA-A*31:01 | NOT MET
PLHILASNK | HLA-A*31:01 | NOT MET
DAYNIADAAR | HLA-A*31:01 | MET

# check: Kd < 100 nM for YSSMTSDSK
NOT MET

# check: Kd < 100 nM for GLILFVLALY
NOT MET

# check: Kd < 100 nM for KSLNRQTVSR
MET

----------
- system tested: HLA-A*30:02
- assay overview: IEDB peptide-MHC binding, purified MHC/competitive/radioactivity; filed as Kd, often an IC50 or EC50 that approximates it; bounds were set here for any values at or beyond the usual limits of such assays
- reported conditions: source organism: SARS coronavirus Tor2
Measured Kd values are reported for all entries that follow.

sequence record | system tested | Kd
DYSVLYNSTF | HLA-A*30:02 | ≥ 60.4 µM

Kindly note the recorded Kd for LYLYALIYF , which is ≥ 81.1 µM

Kindly note the recorded Kd for AFRDVLVVL , which is 9.83 µM

Kindly note the recorded Kd for NVSLVKPTVY , which is 1.17 µM

----------
- system tested: HLA-B*35:01
- assay overview: IEDB peptide-MHC binding, purified MHC/competitive/radioactivity; filed as Kd, often an IC50 or EC50 that approximates it; bounds were set here for any values at or beyond the usual limits of such assays
- reported conditions: source organism: Vaccinia virus WR
pKd: −log10 of the molar value.
measurement name: pKd

// known answers, use as guide
sequence record | pKd
LPESDLDKV | ≤ 4.65
KPKFCLIDGM | ≤ 4.65
YLLFASMGFK | ≤ 4.16

Kindly note the recorded pKd for HPLSINVSGV , which is ≤ 4.27

----------
Measured Kd values are reported for all entries that follow.
- system tested: HLA-A*68:01
- assay overview: IEDB peptide-MHC binding, purified MHC/competitive/radioactivity; filed as Kd, often an IC50 or EC50 that approximates it; bounds were set here for any values at or beyond the usual limits of such assays
- reported conditions: source organism: Vaccinia virus WR
Field: numeric (nM). Do not append units.

// known answers, use as guide
sequence record | system tested | Kd (nM)
FADNDRQDIY | HLA-A*68:01 | 1250
QIFNEDTSYY | HLA-A*68:01 | 11.7
FLELKRGIYK | HLA-A*68:01 | 89.1
DAYNIADAAR | HLA-A*68:01 | 1.28

Short answer on HLA-A*68:01 for SITPNNLNK , Kd: 1450

Short answer on HLA-A*68:01 for ATSSFREKSR , Kd: 1.92

Short answer on HLA-A*68:01 for LLAISAVYFK , Kd: 2.52

Short answer on HLA-A*68:01 for FFAYVMNIER , Kd: 3.22

Short answer on HLA-A*68:01 for TLNHVLALK , Kd: 4.17

Short answer on HLA-A*68:01 for NTYLFNILY , Kd: 722

----------
- system tested: HLA-A*29:02
- assay overview: IEDB peptide-MHC binding, purified MHC/competitive/radioactivity; filed as Kd, often an IC50 or EC50 that approximates it; bounds were set here for any values at or beyond the usual limits of such assays
- reported conditions: source organism: SARS coronavirus Tor2
Measured pKd values are reported for all entries that follow.
Keep in mind that pKd stands for -log10 of concentration in molar terms.

// known answers, use as guide
sequence record | measurement name | numeric value
DYDCVSFCY | pKd | 6.84
LYLYALIYF | pKd | 9.84
AFRDVLVVL | pKd | 4.85
PFWITAIYVF | pKd | 6.18
IDETCEHEY | pKd | 5.55

Short answer on HLA-A*29:02 for NVSLVKPTVY , pKd: 5.62

----------
- system tested: HLA-A*01:01
- assay overview: IEDB peptide-MHC binding, purified MHC/competitive/radioactivity; filed as Kd, often an IC50 or EC50 that approximates it; bounds were set here for any values at or beyond the usual limits of such assays
- reported conditions: source organism: SARS coronavirus Tor2
pKd: −log10 of the molar value.
Measured pKd values are reported for all entries that follow.

// known answers, use as guide
sequence record | pKd
DYSVLYNSTF | ≤ 4.15
ASLGPLRETY | ≤ 3.94
QFKDNVILL | ≤ 4.29
DYDCVSFCY | ≤ 4.24

For the next question, use this sequence.
Kindly note the recorded pKd for SGALDTTSY , which is ≤ 4.09

----------
- system tested: HLA-A*33:01
- assay overview: IEDB peptide-MHC binding, purified MHC/competitive/radioactivity; filed as Kd, often an IC50 or EC50 that approximates it; bounds were set here for any values at or beyond the usual limits of such assays
- reported conditions: source organism: SARS coronavirus Tor2
Measured Kd values are reported for all entries that follow.

sequence record | result
GVVFLHVTY | ≥ 77.7 µM

Kindly note the recorded Kd for QQQGQTVTKK , which is ≥ 70 µM

Kindly note the recorded Kd for ASAFFGMSR , which is ≥ 41.5 µM

----------
Measured Kd values are reported for all entries that follow.
- system tested: HLA-A*11:01
- assay overview: IEDB peptide-MHC binding, purified MHC/competitive/radioactivity; filed as Kd, often an IC50 or EC50 that approximates it; bounds were set here for any values at or beyond the usual limits of such assays
- reported conditions: source organism: Vaccinia virus WR
Field: numeric (nM). Do not append units.

Kindly note the recorded Kd for TLISSDGAR , which is 1400

Kindly note the recorded Kd for QIFNEDTSYY , which is 725

Kindly note the recorded Kd for LACTDPSER , which is 19900

Kindly note the recorded Kd for SFSNTIQSYK , which is 130

Kindly note the recorded Kd for LSDIISAEK , which is 34.1

Kindly note the recorded Kd for FLELKRGIYK , which is 1.19

# credit: the Immune Epitope Database (IEDB)
